- Target Under Test: Cellular tumor antigen p53 (Homo sapiens)
- Method Summary: TOX21_p53_BLA_p3_ratio: Tox21 HCT-116 p53 Agonism Beta-lactamase Assay, Ratio, Phase 3 (AID 2283596)
Records with an inconclusive call do not appear. Active and inactive are the calls of the source. The calls were made as follows: active = hit-call score of the fitted dose curve at least 0.9, where 1 is the maximum; inconclusive = response in the unintended direction; inactive = score below 0.9.
Your answer must be one of the following: active, inactive

Hello, I am checking results. What call was entered for N=C1C=CC(=C(c2ccc(N)cc2)c2ccc(N)cc2)C=C1 ? active

Query: recorded result category for COC(=O)c1ccccc1C in this test inactive

Give the logged outcome of this assay for the following compound: OCCCc1ccccc1 inactive

Identify the outcome logged in this assay for the compound shown: O=S(=O)(O)c1ccc(Nc2nc(Nc3ccc(C=Cc4ccc(Nc5nc(Nc6ccc(S(=O)(=O)O)cc6)nc(N(CCO)CCO)n5)cc4S(=O)(=O)O)c(S(=O)(=O)O)c3)nc(N(CCO)CCO)n2)cc1 active

Dear colleague, could you share the recorded outcome for Oc1ccc(/C=C/c2cc(O)cc(O)c2)cc1 when you have a moment? inactive

Assay outcome for CC1=CC(C)C(C=O)CC1 (stereo unspecified) : what was it? inactive

====

- Method Summary: ATG_TGFb_CIS: Attagene CIS-FACTORIAL HepG2 Assay for human Transforming Growth Factor (TGF) (AID 2282967)
- Test Conditions: HepG2 Attagene CIS TGFb reporter, mRNA transcription; actives raise or lower the signal
Activity calls are given as the source filed them. The calls were made as follows: active = hit-call score of the fitted dose curve at least 0.9, where 1 is the maximum; inactive = score below 0.9.

Compound Smiles | outcome
CC(C)c1cccc(C(C)C)c1N | inactive
C=CCCCCCCCCOC(C)=O | inactive
CCOB(OCC)OCC | inactive

====

- Read-out: Matrix Metallopeptidase 9 (MMP9), MMP9 (gene 4318)
- Method Summary: BSK_KF3CT_MMP9: BioMAP Diversity Plus: KF3CT Assay for Matrix Metallopeptidase 9 (MMP9) Biomarker Activity (AID 2283074)
- Test Conditions: primary human keratinocytes with fibroblasts; actives raise or lower the signal
Activity calls are given as the source filed them. The calls were made as follows: active = hit-call score of the fitted dose curve at least 0.9, where 1 is the maximum; inactive = score below 0.9.
Thanks in advance; please answer with one of these: active, inactive

I'd appreciate the recorded outcome for CC/C=C\C/C=C\C/C=C\CCCCCCCC(=O)OC from this test. active

Query: recorded result category for CCCCCCCCCCCC(C)=O in this test inactive

// outcome(item) with item = Oc1c(Cl)cc(Cl)c(Cl)c1Cl active

Per the records of this test, what outcome belongs to CCNc1nc(NC(C)(C)C)nc(OC)n1 ? inactive

Per the records of this test, what outcome belongs to COC(OC)(C(=O)c1ccccc1)c1ccccc1 ? inactive

Lab log entry: CCCCCCCO — outcome as called in the assay? inactive

For CC/C=C\CCOC(=O)c1ccccc1O , what call appears in the results of this test? inactive

Could you check what this test reported for C=CC(=O)OCCCCCCOC(=O)C=C ? active

# lookup: test call for O=C(Cl)c1c(Cl)c(Cl)c(C(=O)Cl)c(Cl)c1Cl inactive

Per the assay record, what outcome was assigned to CC(Cl)COP(=O)(OCC(C)Cl)OCC(C)Cl (centres undefined) ? inactive

Short answer needed: outcome of this test for Cc1c(O)cccc1O ? inactive

Assay outcome for Nc1cccc(N)n1 : what was it? inactive

// outcome(item) with item = Oc1ccccc1Cc1ccccc1O inactive

Given Nc1nc(N)nc(-c2ccccc2)n1 , state the outcome it received in this test. inactive

Hi, do you know how CCCCCCCCCCCC(=O)N(C)CC(=O)O came out in this test? inactive

Test call for this compound, please: C=CC(=O)NC(C)(C)C inactive

Any idea what this test logged for C=CCCCCCCCCC=O ? inactive

Assay outcome for CC(c1cc(C(C)(C)C)cc(C(C)(C)C)c1O)c1cc(C(C)(C)C)cc(C(C)(C)C)c1O : what was it? inactive

Field: outcome | Entry: Cc1ccc([N+](=O)[O-])cc1N inactive

Dear all, I need the recorded test outcome for c1ccc2c(c1)[nH]c1ccccc12 , thank you. inactive

Recorded call for C=CC(=O)NCOCCCC ? inactive

Please indicate how the test categorized Oc1ccc(/C=C/c2cc(O)cc(O)c2)cc1 . active

In this assay, the call recorded for CC=C(C)C(C)=O was what? inactive

What call does the record list for Nc1ccc(C(=O)O)cc1 ? inactive

====

- Read-out: E-selectin (Homo sapiens)
- Method Summary: BSK_SAg_Eselectin: BioMAP Diversity Plus: SAg Assay for Eselectin Biomarker Activity (AID 2283091)
- Test Conditions: primary human HUVEC with PBMC; actives raise or lower the signal
Active and inactive are the calls of the source. The calls were made as follows: active = hit-call score of the fitted dose curve at least 0.9, where 1 is the maximum; inactive = score below 0.9.
Allowed answers: y = active, n = inactive

Dear colleague, could you share the recorded outcome for CCc1cccc(C)c1N(C(=O)CS(=O)(=O)O)C(C)COC (configuration not stated) when you have a moment? n

Which outcome did this test record for the compound CC(C)[N+](C)(CCOC(=O)C1c2ccccc2Oc2ccccc21)C(C)C ? n

Recorded test outcome, item CCOC(=O)C1=NN(c2ccc(Cl)cc2Cl)C(C)(C(=O)OCC)C1 (configuration not stated) n

Returns: the outcome recorded for CC(CCC(=O)O)(c1ccc(O)cc1)c1ccc(O)cc1 in this assay. n

// outcome(item) with item = CCCCCCCCCCCC(C)=O y

What outcome does the record of this test show for c1ccc2c(c1)[nH]c1ccccc12 ? n

Assay result, entry CCOC(=O)/C=C\C(=O)OCC — outcome? y

Test call, this compound: O=C(Cl)c1c(Cl)c(Cl)c(C(=O)Cl)c(Cl)c1Cl n

Hi team, can someone confirm the assay call for C=CCCCCCCCCC=O ? n

State the result this test recorded for C=CC(=O)OCCCCCCOC(=O)C=C . y

What did the test return for CCCCCCOC(=O)CCCCC(=O)OCCCCCC ? n

Assay result, entry CCCC(C)C(=O)OCC (configuration not stated) — outcome? n

Any idea what this test logged for C=CC(=O)OCCCCCCCC(C)C ? n

I'd appreciate the recorded outcome for CC/C=C\C/C=C\C/C=C\CCCCCCCC(=O)OC from this test. y

Outcome? O=C(O)C(F)(F)C(F)(F)C(F)(F)C(F)(F)C(=O)O n

Short answer needed: outcome of this test for Fc1ccc(Br)cc1 ? n

// return assay outcome for O=C(Oc1ccccc1)c1ccccc1C(=O)Oc1ccccc1 n

Assay result, entry Nc1ccc(C(=O)O)cc1 — outcome? n

State the result this test recorded for CCNc1nc(NC(C)(C)C)nc(OC)n1 . y

Recorded test call requested for Cc1c(O)cccc1O n

What outcome does the record of this test show for CCCCC1C(=O)N(c2ccccc2)N(c2ccccc2)C1=O ? n

Write down the call the test reported for this compound. Item: Cc1ccc([N+](=O)[O-])cc1N y

====

- Method Summary: BSK_3C_SRB: Viability Assessment in the BioMAP Diversity Plus: 3C Assay (AID 2283023);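 also: cells read 24 h after compound dosing; fitted both ways against DMSO so a hit may be signal rise or drop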
- Test Conditions: primary human endothelial cells (HUVEC)
Activity calls are given as the source filed them. Rule for the calls: active = hit-call score of the fitted dose curve at least 0.9, where 1 is the maximum; inactive = score below 0.9.
Hi there, use one of these labels in your reply, thanks! TRUE for active, FALSE for inactive

Could you check what this test reported for CC(c1cc(C(C)(C)C)cc(C(C)(C)C)c1O)c1cc(C(C)(C)C)cc(C(C)(C)C)c1O ? FALSE

Any idea what this test logged for COc1ccc(C(=O)/C(Br)=C\C(=O)O)cc1 ? FALSE

Look up the recorded call for CC(C)[N+](C)(CCOC(=O)C1c2ccccc2Oc2ccccc21)C(C)C in this test. FALSE

Recorded test outcome, item c1ccc2c(c1)[nH]c1ccccc12 FALSE

What outcome does the record of this test show for C1CNCCN1 ? FALSE

Call for entry CCCC(C)C(=O)OCC (configuration not stated) : FALSE

Status in this test for CC(Cl)COP(=O)(OCC(C)Cl)OCC(C)Cl (configuration not stated) ? FALSE

Record lookup: outcome of this test for Oc1ccc(/C=C/c2cc(O)cc(O)c2)cc1 ? FALSE

Recorded call for C=CC(=O)OCCCCCCCC(C)C ? FALSE

Could you check what this test reported for O=C(Cl)c1c(Cl)c(Cl)c(C(=O)Cl)c(Cl)c1Cl ? FALSE

Recorded test outcome, item C=CC(=O)OCC(C)OCC(C)OCC(C)OC(=O)C=C (configuration not stated) TRUE

Could you kindly confirm the outcome this assay logged for CC=C(C)C=CC=C(C)C ? FALSE

Give the logged outcome of this assay for the following compound: CCc1cccc(C)c1N(C(=O)CS(=O)(=O)O)C(C)COC (configuration not stated) FALSE

Please indicate how the test categorized C=CCCCCCCCCC=O . FALSE

How did this test come out for CC(C)c1cccc(C(C)C)c1N ? FALSE

Outcome logged for Oc1c(Cl)cc(Cl)c(Cl)c1Cl in this assay: TRUE

Record request — test call for Cc1ccc([N+](=O)[O-])cc1N FALSE

====

- Method Summary: ATG_PBREM_CIS: Attagene CIS-FACTORIAL HepG2 Assay for human Phenobarbital-responsive Enhancer Module (PBREM) (AID 2282955)
- Test Conditions: HepG2 PBREM cis-reporter, Attagene multiplexed transcription; actives raise or lower the signal
Active and inactive are the calls of the source. The calls were made as follows: active = hit-call score of the fitted dose curve at least 0.9, where 1 is the maximum; inactive = score below 0.9.
Returns: one label drawn from active, inactive

Recorded test call requested for CCCCCCCCCC(C)=O inactive

Tell me the assay call for CC(C)(O)Cc1ccccc1 please. inactive

Can you look up the reported call for Cc1cccc(C(C)(C)C)c1O for me? active

Could you kindly confirm the outcome this assay logged for CC(C)c1ccc2ncccc2c1 ? inactive

Please let me know the test result on file for C1CNCCN1 . inactive

What call does the record list for Cc1noc(NS(=O)(=O)c2ccc(N)cc2)c1C ? inactive

Hello, I am checking results. What call was entered for C=CC(=O)OCC(C)OCC(C)OCC(C)OC(=O)C=C (configuration not stated) ? inactive

Query: recorded result category for CC=C(C)C=CC=C(C)C in this test inactive

Called result for CCc1cccc(C)c1N(C(=O)CS(=O)(=O)O)C(C)COC (configuration not stated) inactive

// outcome(item) with item = N#CC1(N)CCCCC1 inactive

Returns: the outcome recorded for C[N+](C)(C)CCCNS(=O)(=O)C(F)(F)C(F)(F)C(F)(F)C(F)(F)C(F)(F)C(F)(F)C(F)(F)C(F)(F)F in this assay. inactive

// return assay outcome for CC1=CC(C)C(C=O)CC1 (configuration not stated) inactive
